# system.name: ATP-dependent Clp protease proteolytic subunit (Escherichia coli (strain K12), UniProt P0A6G7)
# experiment.description: Inhibition of Escherichia coli C-terminal His6-tagged ClpP expressed Escherichia coli SG1146a using Suc-LY-AMC as substrate preincubated for 10 mins followed by substrate addition and measured over 1 hr by fluorescence assay
This section presents compounds with their documented log10 IC50 values.
property.label: log10 IC50 (log10 of the value in µM)

compound="O=C(NC(Cc1ccc(C(F)(F)F)cc1)P(=O)(Oc1ccccc1)Oc1ccccc1)OCc1ccccc1 (centres undefined)" obs_value=1.15
compound="COc1cccc(C(NC(=O)OCc2ccccc2)P(=O)(Oc2ccccc2)Oc2ccccc2)n1 (centres undefined)" obs_value=1.58
compound="COC(=O)NC(c1ccc(C(=N)N)cc1)P(=O)(Oc1ccccc1)Oc1ccccc1 (centres undefined)" obs_value=1.68
compound="O=C(NC(c1c[nH]c2ccc(Cl)cc12)P(=O)(Oc1ccccc1)Oc1ccccc1)OCc1ccccc1 (centres undefined)" obs_value=2.00
compound="Nc1ccc(C(NC(=O)OCc2ccccc2)P(=O)(Oc2ccccc2)Oc2ccccc2)cc1 (centres undefined)" obs_value=1.60
compound="N=C(N)N1CC(C(NC(=O)OCc2ccccc2)P(=O)(Oc2ccccc2)Oc2ccccc2)C1 (centres undefined)" obs_value=1.85
compound="C[C@H](NC(=O)[C@H](CO)NC(=O)c1cccs1)C(=O)NC(Cc1ccc(NC(=N)N)cc1)P(=O)(Oc1ccccc1)Oc1ccccc1 (some centres undefined)" obs_value=1.69
compound="N=C(N)c1ccc2cc(C(NC(=O)OCc3ccccc3)P(=O)(Oc3ccccc3)Oc3ccccc3)ccc2c1 (centres undefined)" obs_value=1.90
compound="CN(C)c1ccc(C(NC(=O)OCc2ccccc2)P(=O)(Oc2ccccc2)Oc2ccccc2)cc1 (centres undefined)" obs_value=-0.22

* * *

Below, each entry is listed alongside its reported inhibition.
# system.name: ATP-dependent Clp protease proteolytic subunit (Escherichia coli (strain K12)) (UniProt P0A6G7)
# Sequence (P0A6G7 whole entry): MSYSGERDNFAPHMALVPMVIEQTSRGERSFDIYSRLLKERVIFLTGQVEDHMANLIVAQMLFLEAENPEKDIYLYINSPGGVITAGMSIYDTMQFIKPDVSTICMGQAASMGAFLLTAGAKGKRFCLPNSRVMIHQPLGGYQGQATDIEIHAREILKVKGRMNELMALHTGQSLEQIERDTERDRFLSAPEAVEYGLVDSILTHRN
# experiment.description: Inhibition of Escherichia coli C-terminal His6-tagged ClpP expressed Escherichia coli SG1146a at 200 uM using Suc-LY-AMC as substrate preincubated for 10 mins followed by substrate addition and measured over 1 hr by fluorescence assay relative to control
property.label: inhibition (%)

molecule="COC(=O)NC(c1cccc2c([N+](=O)[O-])cccc12)P(=O)(Oc1ccccc1)Oc1ccccc1 (stereo not drawn)" display_unit=% sign_qualifier== obs_value=17
molecule="CC(C)CC(NC(=O)OCc1ccccc1)P(=O)(Oc1ccccc1)Oc1ccccc1 (stereo not drawn)" display_unit=% sign_qualifier== obs_value=4
molecule="NCC1CCC(C(NC(=O)OCc2ccccc2)P(=O)(Oc2ccccc2)Oc2ccccc2)CC1 (stereo not drawn)" display_unit=% sign_qualifier== obs_value=15
molecule="N=C(N)N1CCC(C(NC(=O)c2ccco2)P(=O)(Oc2ccccc2)Oc2ccccc2)CC1 (stereo not drawn)" display_unit=% sign_qualifier== obs_value=24
molecule="O=C(NC(c1cccc2ccccc12)P(=O)(Oc1ccccc1)Oc1ccccc1)OCc1ccccc1 (stereo not drawn)" display_unit=% sign_qualifier== obs_value=6
molecule="CN(C)C(=O)Nc1ccc(C(NC(=O)OCc2ccccc2)P(=O)(Oc2ccccc2)Oc2ccccc2)cc1 (stereo not drawn)" display_unit=% sign_qualifier== obs_value=22
molecule="Nc1ccc(C(NC(=O)OCCCC(F)(F)F)P(=O)(Oc2ccccc2)Oc2ccccc2)cc1 (stereo not drawn)" display_unit=% sign_qualifier=< obs_value=1
molecule="N=C(N)N1CCC(C(NC(=O)/C=C/c2ccc3c(c2)OCO3)P(=O)(Oc2ccccc2)Oc2ccccc2)CC1 (stereo not drawn)" display_unit=% sign_qualifier== obs_value=4
molecule="O=C(NC(c1ccc(NC(=O)C(F)(F)F)cc1)P(=O)(Oc1ccccc1)Oc1ccccc1)OCc1ccccc1 (stereo not drawn)" display_unit=% sign_qualifier== obs_value=15
molecule="CC(C)C[C@H](NC(=O)OCc1ccccc1)C(=O)NC(Cc1ccc(O)cc1)P(=O)(Oc1ccccc1)Oc1ccccc1 (stereo partly drawn)" display_unit=% sign_qualifier=< obs_value=1
molecule="CS(=O)(=O)Nc1ccc(CCC(NC(=O)OCc2ccccc2)P(=O)(Oc2ccccc2)Oc2ccccc2)cc1 (stereo not drawn)" display_unit=% sign_qualifier== obs_value=10
molecule="O=C(NC(Cc1ccc2ccccc2c1)P(=O)(Oc1ccccc1)Oc1ccccc1)OCc1ccccc1 (stereo not drawn)" display_unit=% sign_qualifier=< obs_value=1
molecule="O=C(NC(CC1CCNCC1)P(=O)(Oc1ccccc1)Oc1ccccc1)OCc1ccccc1 (stereo not drawn)" display_unit=% sign_qualifier== obs_value=16
molecule="O=C(NC(c1ccc(N2CCNCC2)cc1)P(=O)(Oc1ccccc1)Oc1ccccc1)OCc1ccccc1 (stereo not drawn)" display_unit=% sign_qualifier== obs_value=100
molecule="N=C(N)c1ccc2cc(C(NC(=O)OCc3ccccc3)P(=O)(Oc3ccccc3)Oc3ccccc3)ccc2c1 (stereo not drawn)" display_unit=% sign_qualifier== obs_value=81
molecule="COc1ccc(CC(NC(=O)OCc2ccccc2)P(=O)(Oc2ccccc2)Oc2ccccc2)cc1 (stereo not drawn)" display_unit=% sign_qualifier== obs_value=6
molecule="N=C(N)Nc1ccc(CC(NC(=O)OCCC(F)(F)C(F)(F)C(F)(F)C(F)(F)C(F)(C(F)(F)F)C(F)(F)F)P(=O)(Oc2ccccc2)Oc2ccccc2)cc1 (stereo not drawn)" display_unit=% sign_qualifier== obs_value=55
molecule="Nc1ccc(C(NC(=O)OCc2c(F)c(F)c(F)c(F)c2F)P(=O)(Oc2ccccc2)Oc2ccccc2)cc1 (stereo not drawn)" display_unit=% sign_qualifier== obs_value=28

* * *

# system.name: ATP-dependent Clp protease proteolytic subunit (Escherichia coli (strain K12)) (UniProt P0A6G7)
# experiment.description: Inhibition of Escherichia coli C-terminal His6-tagged ClpP expressed Escherichia coli SG1146a at 200 uM using Suc-LY-AMC as substrate preincubated for 10 mins followed by substrate addition and measured over 1 hr by fluorescence assay relative to control
property.label: inhibition

molecule="N#Cc1cccc(C(NC(=O)OCc2ccccc2)P(=O)(Oc2ccccc2)Oc2ccccc2)c1 (centres undefined)" property_label=inhibition obs_value=15%
molecule="O=C(NC(CCc1ccc([N+](=O)[O-])cc1)P(=O)(Oc1ccccc1)Oc1ccccc1)OCc1ccccc1 (centres undefined)" property_label=inhibition obs_value=100%
molecule=N#C[C@@H](NC(=O)OCc1ccccc1)c1cccc(N)c1 property_label=inhibition obs_value=8%
molecule="O=C(NC(Cc1ccc(F)cc1)P(=O)(Oc1ccccc1)Oc1ccccc1)OCc1ccccc1 (centres undefined)" property_label=inhibition obs_value=13%
molecule="N=C(N)Nc1ccc(C(NS(=O)(=O)c2ccccc2)P(=O)(Oc2ccccc2)Oc2ccccc2)cc1 (centres undefined)" property_label=inhibition obs_value=29%
molecule="O=C(NC(Cc1ccc(C(F)(F)F)cc1)P(=O)(Oc1ccccc1)Oc1ccccc1)OCc1ccccc1 (centres undefined)" property_label=inhibition obs_value=100%
molecule="O=C(NC(c1cc([N+](=O)[O-])ccc1Cl)P(=O)(Oc1ccccc1)Oc1ccccc1)OCc1ccccc1 (centres undefined)" property_label=inhibition obs_value=6%
molecule="COc1cccc(C(NC(=O)OCc2ccccc2)P(=O)(Oc2ccccc2)Oc2ccccc2)n1 (centres undefined)" property_label=inhibition obs_value=100%
molecule="COP(=O)(Oc1ccccc1)C(Cc1ccc(O)cc1)NC(=O)OCc1ccccc1 (centres undefined)" property_label=inhibition obs_value=14%

* * *

# pIC50 per record follows
# system.name: ATP-dependent Clp protease proteolytic subunit (Escherichia coli (strain K12))
# experiment.description: Inhibition of Escherichia coli C-terminal His6-tagged ClpP expressed Escherichia coli SG1146a using Suc-LY-AMC as substrate preincubated for 10 mins followed by substrate addition and measured over 1 hr by fluorescence assay
pIC50: −log10 of the molar value.
property.label: pIC50

compound="O=C(NC(CCc1ccc([N+](=O)[O-])cc1)P(=O)(Oc1ccccc1)Oc1ccccc1)OCc1ccccc1 (centres undefined)" obs_value=4.88
compound="O=C(NC(c1ccc(N2CCNCC2)cc1)P(=O)(Oc1ccccc1)Oc1ccccc1)OCc1ccccc1 (centres undefined)" obs_value=6.22
compound="O=C(NC(c1ccc(NC(=O)C(F)(F)F)cc1)P(=O)(Oc1ccccc1)Oc1ccccc1)OCc1ccc2c(c1)OCO2 (centres undefined)" obs_value=5.09
compound="Nc1cccc(C(NC(=O)OCc2ccccc2)P(=O)(Oc2ccccc2)Oc2ccccc2)c1 (centres undefined)" obs_value=6.30

* * *

# system.name: ATP-dependent Clp protease proteolytic subunit (Escherichia coli (strain K12)) (UniProt P0A6G7)
# experiment.description: Inhibition of Escherichia coli C-terminal His6-tagged ClpP expressed Escherichia coli SG1146a at 200 uM using Suc-LY-AMC as substrate preincubated for 10 mins followed by substrate addition and measured over 1 hr by fluorescence assay relative to control
Please enter satisfied where inhibition is greater than or equal to 10%, and not satisfied where it is lower.

compound="O=C(NC(Cc1cccc(O)c1)P(=O)(Oc1ccccc1)Oc1ccccc1)OCc1ccccc1 (stereo not given)" class_label="not satisfied"
compound="O=C(NC(Cc1ccccc1)P(=O)(Oc1ccccc1)Oc1ccccc1)OCc1ccccc1 (stereo not given)" class_label="not satisfied"
compound="C#CCOCCOCCOC(=O)NC(c1ccc(N2CCNCC2)cc1)P(=O)(Oc1ccccc1)Oc1ccccc1 (stereo not given)" class_label=satisfied
compound="COc1ccc(CC(=O)NC(C2CCN(C(=N)N)CC2)P(=O)(Oc2ccccc2)Oc2ccccc2)cc1 (stereo not given)" class_label=satisfied
compound="N=C(N)NCCCC(NC(=O)OCc1ccccc1)P(=O)(Oc1ccccc1)Oc1ccccc1 (stereo not given)" class_label=satisfied
compound="N=C(N)N1CCC(C(NC(=O)/C=C/c2ccccc2)P(=O)(Oc2ccccc2)Oc2ccccc2)CC1 (stereo not given)" class_label=satisfied
compound="N=C(N)Nc1cccc2c(C(NC(=O)OCc3ccccc3)P(=O)(Oc3ccccc3)Oc3ccccc3)cccc12 (stereo not given)" class_label=satisfied
compound="O=C(NC(c1ccc2cc(O)ccc2c1)P(=O)(Oc1ccccc1)Oc1ccccc1)OCc1ccccc1 (stereo not given)" class_label="not satisfied"
compound="CC(=O)Nc1ccc(OP(=O)(Oc2ccc(NC(C)=O)cc2)C(NC(=O)OCc2ccccc2)c2cccc(N)c2)cc1 (stereo not given)" class_label=satisfied
